Catalogue of compounds with associated inhibition at 10 µM
# measured-target: human orexin 1 receptor (hOx1R) (Homo sapiens, UniProt O43613)
# Construct: expressed in transfected cells
# Sequence (O43613 whole entry): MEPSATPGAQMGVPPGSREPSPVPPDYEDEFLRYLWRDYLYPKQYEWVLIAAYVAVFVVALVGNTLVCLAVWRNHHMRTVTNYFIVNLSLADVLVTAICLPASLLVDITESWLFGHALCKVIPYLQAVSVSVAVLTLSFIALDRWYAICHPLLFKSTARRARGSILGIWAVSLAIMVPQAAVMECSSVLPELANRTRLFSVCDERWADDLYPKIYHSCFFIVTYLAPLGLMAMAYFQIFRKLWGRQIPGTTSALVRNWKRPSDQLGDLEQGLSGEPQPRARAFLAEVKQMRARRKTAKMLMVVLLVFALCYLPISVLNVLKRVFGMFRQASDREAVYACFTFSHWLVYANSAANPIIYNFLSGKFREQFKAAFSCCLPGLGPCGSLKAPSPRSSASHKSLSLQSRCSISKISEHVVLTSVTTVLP
# assay: Calcium accumulation in cells (FLIPR), antagonism of orexin A, hOx1R
# Type: cell-based
# measurement-setup: measured at a concentration of 10 μM of compound (cells marked ^a)
quantity: inhibition at 10 µM (%)

* Cc1cccc(C)c1C(=O)N(C)[C@H](CCNC(=O)c1ccccn1)Cc1ccccc1 | 28
* CN(C(=O)c1ccccc1)[C@H](CCNC(=O)c1nccn1C)Cc1ccccc1 | 2
* CN(C(=O)c1ccccc1)[C@H](CCNC(=O)c1cccnc1)Cc1ccccc1 | 4
* CN(C(=O)c1ccc2c(c1)OCO2)[C@@H](Cc1ccccc1)C(C)(C)CNC(=O)c1ccccn1 | 24
* CN(C(=O)c1ccccc1)[C@H](CCNC(=O)c1ccccn1)Cc1ccc(Cl)cc1 | 0
* CN(C(=O)c1ccccc1)[C@H](CCNC(=O)c1ccc2cccnc2c1)Cc1ccccc1 | 19
* CN(C(=O)c1cc(C(F)(F)F)cc(C(F)(F)F)c1)C(CCNC(=O)c1ccccc1)Cc1ccccc1 (centres unmarked) | 36
* CN(C(=O)c1ccc2ccccc2c1)[C@H](CCNC(=O)c1ccccn1)Cc1ccc(Cl)cc1 | 13

----------
# measured-target: human orexin 2 receptor (hOx2R) (Homo sapiens)
# Construct: expressed in transfected cells
# Sequence (O43614 1-444): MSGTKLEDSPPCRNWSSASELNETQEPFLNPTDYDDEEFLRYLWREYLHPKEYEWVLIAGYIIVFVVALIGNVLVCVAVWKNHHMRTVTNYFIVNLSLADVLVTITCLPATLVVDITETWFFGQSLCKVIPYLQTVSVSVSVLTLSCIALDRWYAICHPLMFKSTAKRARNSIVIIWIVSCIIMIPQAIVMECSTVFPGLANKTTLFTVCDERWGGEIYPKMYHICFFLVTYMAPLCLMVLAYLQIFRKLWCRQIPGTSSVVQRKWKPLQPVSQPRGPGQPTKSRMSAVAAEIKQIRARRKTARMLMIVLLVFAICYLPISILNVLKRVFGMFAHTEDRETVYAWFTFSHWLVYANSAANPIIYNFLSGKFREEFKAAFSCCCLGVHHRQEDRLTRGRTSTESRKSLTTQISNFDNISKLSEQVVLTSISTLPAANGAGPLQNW
# assay: Calcium accumulation in cells (FLIPR), antagonism of orexin A, hOx2R
# Format: cell-based
# measurement-setup: cells expressing human orexin 2 receptor; IC50 vs orexin A converted by Cheng and Prusoff correction
# Procedure: Cells expressing human orexin 1 or human orexin 2 receptors, were seeded at 8,000 cells/well in 384 well black-walled clear bottom, poly-D-lysine coated plates. […] On the day of the experiment, the cells seeded in black plates were treated with assay buffer containing the Ca^2+ sensitive fluorescent dye Fluo-4-AM (2 μM), and probenecid (0.1 mM). […] Fluorescence measurements were then continued every 1 S for 120 S followed by every 4 S for 240 S. […]
pKd: −log10 of the molar value.
quantity: pKd

• CCN(C(=O)c1ccc2c(c1)OCO2)[C@H](CCNC(=O)c1ccccn1)Cc1ccccc1 = 7.49
• CN(C(=O)c1ccccc1)[C@H](CCNC(=O)c1cc2ccccc2cn1)Cc1ccccc1 = 5.59
• COc1cc(OC)cc(C(=O)N(C)[C@H](CCNC(=O)c2cccn2C)Cc2ccccc2)c1 = 8.40
• COc1cc(F)cc(C(=O)N(C)[C@H](CCNC(=O)c2cccn2C)Cc2ccccc2)c1 = 8.15
• CN(C(=O)c1cccc2c1OCCO2)[C@H](CCNC(=O)c1ccccn1)Cc1ccccc1 = 6.02
• CN(C(=O)c1ccccc1Br)[C@H](CCNC(=O)c1ccccn1)Cc1ccccc1 = 6.88
• CN(C(=O)c1ccc2c(c1)OCO2)[C@H](CCNC(=O)c1nccn1C)Cc1ccccc1 = 7.55
• CN(C(=O)c1ccc2ccn(C)c2c1)[C@H](CCNC(=O)c1ccccn1)Cc1ccccc1 = 6.40
• CCCOc1cccc(C(=O)N(C)[C@H](CCNC(=O)c2cccn2C)Cc2ccccc2)c1 = 7.25
• COc1cccc(C(=O)N(C)[C@H](CCNC(=O)c2nc3ccccc3n2C)Cc2ccccc2)c1 = 7.92
• CN(C(=O)c1ccccc1)[C@H](CCNC(=O)c1ccccc1)Cc1ccccc1 = 6.57
• CN(C(=O)c1ccc2c(c1)OC(C)(C)O2)[C@H](CCNC(=O)c1ccccn1)Cc1ccccc1 = 5.77
• CCN(C(=O)c1cccc2c1OCO2)[C@H](CCNC(=O)c1ccccn1)Cc1ccccc1 = 6.37
• CN(C(=O)c1cccc2[nH]ccc12)[C@H](CCNC(=O)c1nc2ccccc2n1C)Cc1ccccc1 = 8.52
• CN(C(=O)c1cccc2ccccc12)[C@H](CCNC(=O)c1nc2ccccc2n1C)Cc1ccc(Cl)cc1 = 8.00
• COc1ccc(C(=O)N(C)[C@H](CCNC(=O)c2nc3ccccc3n2C)Cc2ccccc2)cc1OC = 7.01
• Cc1cc(C)cc(C(=O)N(C)[C@H](CCNC(=O)c2cccn2C)Cc2ccccc2)c1 = 8.70
• CCCN(C(=O)c1cc(C(F)(F)F)cc(C(F)(F)F)c1)[C@H](CCNC(=O)c1ccccn1)Cc1ccccc1 = 6.98
• CN(C(=O)c1ccc(C(F)(F)F)cc1)[C@H](CCNC(=O)c1ccccn1)Cc1ccccc1 = 5.88
• COc1cccc(C(=O)N(C)[C@H](CCNC(=O)c2ccccn2)Cc2ccccc2)c1 = 6.04
• CN(C(=O)c1cccc2c1OCC2)[C@H](CCNC(=O)c1ccccn1)Cc1ccccc1 = 6.00
• CN1CCc2cc(C(=O)N(C)[C@H](CCNC(=O)c3ccccn3)Cc3ccccc3)ccc21 = 5.89
• CN(C(=O)c1cccc(Br)c1)[C@H](CCNC(=O)c1nc2ccccc2n1C)Cc1ccccc1 = 9.00
• CN(C(=O)c1cccc2ccccc12)[C@H](CCNC(=O)c1nc2ccccc2n1C)Cc1ccc(F)cc1 = 8.30
• CN(C(=O)c1ccc2ccccc2c1)[C@H](CCNC(=O)c1nc2ccccc2n1C)Cc1ccccc1 = 7.05
• COc1cccc(C(=O)N(C)[C@H](CCNC(=O)c2cccn2C)Cc2ccccc2)c1 = 8.10
• CN(C(=O)c1ccccc1)[C@H](CCNC(=O)c1nccn1C)Cc1ccccc1 = 6.04
• CN(C(=O)c1ccccc1)[C@H](CCNC(=O)c1cccc2c1OCC2)Cc1ccccc1 = 6.74
• CN(C(=O)c1ccccc1)[C@H](CCNC(=O)c1ccc2ccccc2n1)Cc1ccccc1 = 5.89
• CC(=O)NCC[C@H](Cc1ccccc1)N(C)C(=O)c1ccc2c(c1)OCO2 = 5.76
• CCOc1cccc(C(=O)N(C)[C@H](CCNC(=O)c2cccn2C)Cc2ccccc2)c1 = 8.70
• CN(C(=O)c1ccc2c(c1)CCO2)[C@H](CCNC(=O)c1ccccn1)Cc1ccccc1 = 6.80

src = patent US20100222396A1
